A collection of compounds and their measured CLH
- Method Summary: Microsomal stability in human liver microsomes assessed as intrinsic clearance at 1 uM measured up to 50 mins in presence of NADPH by LC-MS/MS analysis
- Format: ADME, Microsome
Record the value in µL/min/mg, omitting the unit from your answer.

So for O=C(O)c1ccc(NCc2c(-c3c(Cl)cccc3C(F)(F)F)noc2-c2cc[nH]c2)cc1 , the logged CLH turned out to be 31.2

So for O=C(O)c1ccc(-c2nn(C(=O)c3c(Cl)cccc3C(F)(F)F)c3ccccc23)cc1 , the logged CLH turned out to be 0.4

So for O=C(O)c1ccc(OCc2c(-c3c(Cl)cccc3C(F)(F)F)noc2-c2cc[nH]c2)cc1F , the logged CLH turned out to be 77

So for O=C(O)c1ccc(OCc2c(-c3c(Cl)cccc3C(F)(F)F)noc2-c2ccc[nH]2)cc1 , the logged CLH turned out to be 68

So for O=C(O)c1ccc(/C=C/c2c(-c3c(Cl)cccc3C(F)(F)F)noc2-c2cc[nH]c2)cc1 , the logged CLH turned out to be 69

So for O=C(O)c1ccc(OCc2c(-c3c(Cl)cccc3C(F)(F)F)noc2-c2cn[nH]c2)cc1 , the logged CLH turned out to be 8.8

So for O=C(O)c1ccc(OCc2c(-c3c(Cl)cccc3C(F)(F)F)noc2-c2cc[nH]c2)cc1 , the logged CLH turned out to be 57.8

---

- Method Summary: Kinetic aqueous solubility of compound in HEPES buffer at pH 7.4 at 500 uM measured after 90 mins by spectrophotometry analysis
- Format: physicochemical
A collection of compounds and their measured Kinetic_solubility
Record the value in µM, omitting the unit from your answer.

Below are worked cases with known answers.
>>> result("O=C(O)c1ccc(OCc2c(-c3c(Cl)cccc3C(F)(F)F)noc2-c2cc[nH]c2)cc1F")
445
>>> result("O=C(O)c1ccc(NCc2c(-c3c(Cl)cccc3C(F)(F)F)noc2-c2cc[nH]c2)cc1")
460
>>> result("O=C(O)c1ccc(OCc2c(-c3c(Cl)cccc3C(F)(F)F)noc2-c2cn[nH]c2)cc1")
476
>>> result("O=C(O)c1ccc(-c2nn(C(=O)c3c(Cl)cccc3C(F)(F)F)c3ccccc23)cc1")
423
>>> result("O=C(O)c1ccc(OCc2c(-c3c(Cl)cccc3C(F)(F)F)noc2-c2cc[nH]c2)cc1")
436
>>> result("O=C(O)c1ccc(OCc2c(-c3c(Cl)cccc3C(F)(F)F)noc2-c2ccc[nH]2)cc1")
421

Then this compound:
So for O=C(O)c1ccc(/C=C/c2c(-c3c(Cl)cccc3C(F)(F)F)noc2-c2cc[nH]c2)cc1 , the logged Kinetic_solubility turned out to be 392

---

- Method Summary: Permeability of the compound at 500 uM after 20 hrs by PAMPA
- Format: ADME
# permeability >= 40% gives true (1), anything below gives false (0)

# example entries with known answers
>>> qualitative_label("O=C(O)c1ccc(-c2nn(C(=O)c3c(Cl)cccc3C(F)(F)F)c3ccccc23)cc1")
"false (0)"
>>> qualitative_label("O=C(O)c1ccc(OCc2c(-c3c(Cl)cccc3C(F)(F)F)noc2-c2ccc[nH]2)cc1")
"true (1)"
>>> qualitative_label("O=C(O)c1ccc(NCc2c(-c3c(Cl)cccc3C(F)(F)F)noc2-c2cc[nH]c2)cc1")
"false (0)"
>>> qualitative_label("O=C(O)c1ccc(OCc2c(-c3c(Cl)cccc3C(F)(F)F)noc2-c2cc[nH]c2)cc1F")
"false (0)"

Challenge: Is permeability for O=C(O)c1ccc(OCc2c(-c3c(Cl)cccc3C(F)(F)F)noc2-c2cn[nH]c2)cc1 at or above 40%?
Response given: false (0)

---

- Method Summary: Stability in human plasma assessed as parent compound remaining at 5 uM measured after 1 hr by LC-MS/MS analysis relative to control
- Assay type: ADME, cell-free
- Recorded Conditions: read-out: Stability
So basically: is remaining at 1 h, 5 µM under 90%? Then Met. Not under? Then Not met.

>>> qualitative_label("O=C(O)c1ccc(OCc2c(-c3c(Cl)cccc3C(F)(F)F)noc2-c2cc[nH]c2)cc1F")
"Not met"

Next up:
Challenge: Here's an entry: O=C(O)c1ccc(/C=C/c2c(-c3c(Cl)cccc3C(F)(F)F)noc2-c2cc[nH]c2)cc1 . Is its remaining at 1 h, 5 µM below 90%?
Response given: Met

---

- Method Summary: Stability in human plasma assessed as parent compound remaining at 5 uM measured after 1 hr by LC-MS/MS analysis relative to control
- Type: ADME, cell-free
- Recorded Conditions: read-out: Stability
Observation Type: remaining at 1 h, 5 µM (%)
Record the value in %, omitting the unit from your answer.

Below are worked cases with known answers.
>>> result("O=C(O)c1ccc(OCc2c(-c3c(Cl)cccc3C(F)(F)F)noc2-c2ccc[nH]2)cc1")
89.5
>>> result("O=C(O)c1ccc(OCc2c(-c3c(Cl)cccc3C(F)(F)F)noc2-c2cc[nH]c2)cc1")
74.2
>>> result("O=C(O)c1ccc(NCc2c(-c3c(Cl)cccc3C(F)(F)F)noc2-c2cc[nH]c2)cc1")
79.1
>>> result("O=C(O)c1ccc(OCc2c(-c3c(Cl)cccc3C(F)(F)F)noc2-c2cn[nH]c2)cc1")
100

So for O=C(O)c1ccc(-c2nn(C(=O)c3c(Cl)cccc3C(F)(F)F)c3ccccc23)cc1 , the logged remaining at 1 h, 5 µM turned out to be 95.5
